- test.system: T1, RBFOX1 RRM (Homo sapiens, UniProt Q9NWB1 109-208)
- T1 sequence: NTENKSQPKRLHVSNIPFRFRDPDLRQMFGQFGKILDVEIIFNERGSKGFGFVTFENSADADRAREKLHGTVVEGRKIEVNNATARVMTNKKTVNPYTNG
- assay.name: EMSA; HiTS-Eq, 1 nM pool, 10 min; buffer printed only for the single-RNA assays: 10 mM Tris pH 7.5, 150 mM NaCl, 3.4 mM EDTA, 0.001% NP-40, 30 C
- details: tags: His6 N-terminal (pET28a); label: 5' 32P
The full ranking holds about 16,000 sequences; the median of “ka relative to ugcaugu” is about 0.0091, and the highest 2% start at about 0.032. This excerpt belongs to a sample that is enriched for the highest values.
property.measured: binding signal

UUUUCCG (DNA:RNA) RNA: GGGAGACCGGAAUUCAGAUUGUCCUUUUCCGUUAAAUCCCGUCGUAGCCACCA DNA 1: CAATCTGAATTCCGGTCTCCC DNA 2: TGGTGGCTACGACGGGATT :: 0.0112 KA relative to UGCAUGU
AGUACGU (DNA:RNA) RNA: GGGAGACCGGAAUUCAGAUUGUCCAGUACGUUUAAAUCCCGUCGUAGCCACCA DNA 1: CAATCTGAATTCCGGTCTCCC DNA 2: TGGTGGCTACGACGGGATT :: 0.00915 KA relative to UGCAUGU
AAAACAC (DNA:RNA) RNA: GGGAGACCGGAAUUCAGAUUGUCCAAAACACUUAAAUCCCGUCGUAGCCACCA DNA 1: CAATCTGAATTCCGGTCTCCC DNA 2: TGGTGGCTACGACGGGATT :: 0.00144 KA relative to UGCAUGU
UGGGUCG (DNA:RNA) RNA: GGGAGACCGGAAUUCAGAUUGUCCUGGGUCGUUAAAUCCCGUCGUAGCCACCA DNA 1: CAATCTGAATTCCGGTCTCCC DNA 2: TGGTGGCTACGACGGGATT :: 0.0407 KA relative to UGCAUGU
